- ASSAY REMARKS: Stability of compound 13 prodrugs in human serum
- Type: in vitro ADME
- MEASUREMENT PARAMETERS: 37° C., prodrug 50.0 μg/mL, t = 30 min
PARAMETER: % of initial area ratio at t = 30 min (%)
Hi! Could you send only the number? It should be in %, unit omitted.

Consider the worked cases shown below.
QUERY SMILES	UNIT INFO	% of initial area ratio at t = 30 min
CC(=O)OCC(=O)OCOC(=O)c1c(F)ccc2c1OB(O)[C@@H]1C[C@H]21	%	0
O=C(OCOC(=O)C1CCOCC1)c1c(F)ccc2c1OB(O)[C@@H]1C[C@H]21	%	41.1
O=C(OCOC(=O)c1c(F)ccc2c1OB(O)[C@@H]1C[C@H]21)OC1COC1	%	38.7
COCC(=O)OCOC(=O)c1c(F)ccc2c1OB(O)[C@@H]1C[C@H]21	%	2.9

### Prompt Please look up its % of initial area ratio at t = 30 min: Cc1oc(=O)oc1COC(=O)c1c(F)ccc2c1OB(O)[C@@H]1C[C@H]21
### Response 0

Measured values drawn from patent US11999759B2 for this set.
